target: HiBit-BRG1 fusion protein (Homo sapiens); construct: expressed in transfected cells; test: HiBiT-BRG1 cell-based degradation assay (Nano-Glo HiBiT Lytic Detection, 24 h); settings: HeLa cell line expressing HiBit-BRG1 and LgBit, read-out: BRG1 HiBit Degradation Maximum (%)
Sequence (P51532 whole entry, the tested form may be a part): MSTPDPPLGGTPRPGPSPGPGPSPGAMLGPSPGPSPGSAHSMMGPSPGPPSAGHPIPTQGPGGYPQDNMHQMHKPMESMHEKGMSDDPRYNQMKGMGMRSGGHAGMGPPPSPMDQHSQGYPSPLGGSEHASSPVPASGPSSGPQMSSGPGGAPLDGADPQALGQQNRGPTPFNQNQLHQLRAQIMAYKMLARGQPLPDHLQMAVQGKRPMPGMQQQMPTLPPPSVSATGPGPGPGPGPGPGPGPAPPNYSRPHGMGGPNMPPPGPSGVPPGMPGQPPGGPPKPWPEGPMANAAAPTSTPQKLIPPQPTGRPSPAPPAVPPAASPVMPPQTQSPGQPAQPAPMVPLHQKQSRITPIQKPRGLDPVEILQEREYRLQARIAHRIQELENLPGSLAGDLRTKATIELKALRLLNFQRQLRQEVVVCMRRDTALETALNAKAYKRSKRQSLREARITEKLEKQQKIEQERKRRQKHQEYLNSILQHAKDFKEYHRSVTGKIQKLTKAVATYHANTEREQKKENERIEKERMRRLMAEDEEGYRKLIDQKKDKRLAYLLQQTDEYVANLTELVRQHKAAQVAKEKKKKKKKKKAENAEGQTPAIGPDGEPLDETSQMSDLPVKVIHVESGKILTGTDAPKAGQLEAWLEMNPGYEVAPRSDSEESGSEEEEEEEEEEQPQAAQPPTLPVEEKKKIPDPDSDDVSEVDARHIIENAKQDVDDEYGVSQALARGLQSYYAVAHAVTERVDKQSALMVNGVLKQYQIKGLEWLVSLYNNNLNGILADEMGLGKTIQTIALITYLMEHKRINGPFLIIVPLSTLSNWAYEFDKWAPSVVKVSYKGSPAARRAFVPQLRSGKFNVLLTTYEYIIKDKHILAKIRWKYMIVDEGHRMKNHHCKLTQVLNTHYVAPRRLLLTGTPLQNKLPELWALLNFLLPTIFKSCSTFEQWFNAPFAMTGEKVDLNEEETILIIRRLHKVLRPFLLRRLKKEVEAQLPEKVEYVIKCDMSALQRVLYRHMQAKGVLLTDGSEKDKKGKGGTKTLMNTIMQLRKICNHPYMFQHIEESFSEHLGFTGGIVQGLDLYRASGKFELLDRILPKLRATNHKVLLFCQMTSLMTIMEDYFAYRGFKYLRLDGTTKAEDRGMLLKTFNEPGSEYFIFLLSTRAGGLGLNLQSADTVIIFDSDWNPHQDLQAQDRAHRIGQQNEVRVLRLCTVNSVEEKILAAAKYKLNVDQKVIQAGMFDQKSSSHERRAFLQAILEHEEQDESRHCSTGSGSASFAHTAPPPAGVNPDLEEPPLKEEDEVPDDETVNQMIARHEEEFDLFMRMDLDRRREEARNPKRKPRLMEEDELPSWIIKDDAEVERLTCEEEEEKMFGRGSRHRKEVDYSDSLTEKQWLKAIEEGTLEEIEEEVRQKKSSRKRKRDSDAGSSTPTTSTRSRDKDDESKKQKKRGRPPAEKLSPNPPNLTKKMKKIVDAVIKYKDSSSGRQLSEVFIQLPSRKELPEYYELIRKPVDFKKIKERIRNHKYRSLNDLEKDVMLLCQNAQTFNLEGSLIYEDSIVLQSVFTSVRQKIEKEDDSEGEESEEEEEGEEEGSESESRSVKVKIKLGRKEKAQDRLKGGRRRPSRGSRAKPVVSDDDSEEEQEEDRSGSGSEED
This section presents molecules with their documented Dmax values.

| molecule | target | result |
| --- | --- | --- |
| Cc1ncsc1-c1ccc([C@H](C)NC(=O)[C@@H]2C[C@@H](O)CN2C(=O)[C@@H](c2cc(N3CCC(C(=O)N[C@@H]4CCc5[nH]c6nnc(-c7ccccc7O)cc6c5C4)CC3)no2)C(C)C)cc1 (single isomer, unassigned) [Compound 146] | HiBit-BRG1 fusion protein (Homo sapiens) | > 75% |
| Cc1ncsc1-c1ccc([C@H](C)NC(=O)[C@@H]2C[C@@H](O)CN2C(=O)[C@@H](c2cc(N3CCN(CC45CC(c6cc7cc(-c8ccccc8O)nnc7[nH]6)(C4)C5)CC3)no2)C(C)C)cc1 (single isomer, unassigned) [Compound 233] | HiBit-BRG1 fusion protein (Homo sapiens) | > 75% |
| Cc1ncsc1-c1ccc(CNC(=O)[C@@H]2C[C@@H](O)CN2C(=O)[C@@H](NC(=O)CCN(C)C23CC(c4cc5cc(-c6ccccc6O)nnc5[nH]4)(C2)C3)C(C)(C)C)cc1 (racemic) [Compound 293] | HiBit-BRG1 fusion protein (Homo sapiens) | > 50% |
| Cc1ncsc1-c1ccc(CNC(=O)[C@@H]2C[C@@H](O)CN2C(=O)[C@@H](NC(=O)CCNC23CC(c4cc5cc(-c6ccccc6O)nnc5[nH]4)(C2)C3)C(C)(C)C)cc1 (racemic) [Compound 296] | HiBit-BRG1 fusion protein (Homo sapiens) | > 50% |
| Cc1ncsc1-c1ccc([C@H](C)NC(=O)[C@@H]2C[C@@H](O)CN2C(=O)[C@@H](c2cc(OCCN3CCC[C@H](c4cc5cc(-c6ccccc6O)nnc5[nH]4)C3)no2)C(C)C)cc1 (racemic) [Compound 278] | HiBit-BRG1 fusion protein (Homo sapiens) | > 50% |

Q: Endpoint output: Dmax of Cc1ncsc1-c1ccc([C@H](C)NC(=O)[C@@H]2C[C@@H](O)CN2C(=O)C(c2cc(N3CCC(C(=O)N4CC(c5c[nH]c6nnc(-c7ccccc7O)cc56)C4)CC3)no2)C(C)C)cc1 (mixture of isomers) [Compound 236] . Value?
A: < 50%

Q: Same for Cc1ncsc1-c1ccc([C@H](C)NC(=O)[C@@H]2C[C@@H](O)CN2C(=O)[C@@H](c2cc(OCCN3CCC[C@@H]3c3c[nH]c4nnc(-c5ccccc5O)cc34)no2)C(C)C)cc1 (single isomer, unassigned) [Compound 228]
A: < 50%

Q: Same for Cc1ncsc1-c1ccc([C@H](C)NC(=O)[C@@H]2C[C@@H](O)CN2C(=O)[C@@H](c2cc(OCCN3CCC[C@@H]3c3cc4cc(-c5ccccc5O)nnc4[nH]3)no2)C(C)C)cc1 (racemic) [Compound 261]
A: < 50%

Q: Same for Cc1ncsc1-c1ccc([C@H](C)NC(=O)[C@@H]2C[C@@H](O)CN2C(=O)[C@H](c2cc(OCCCN3C[C@@H]4[C@H](C3)[C@H]4c3cc4cc(-c5ccccc5O)nnc4[nH]3)no2)C(C)C)cc1 (racemic) [Compound 215]
A: < 50%

Q: Same for Cc1ncsc1-c1ccc(CNC(=O)[C@@H]2C[C@@H](O)CN2C(=O)[C@@H](NC(=O)CCCCCCCCCCCCCCCCC(=O)N2CC(c3c[nH]c4nnc(-c5ccccc5O)cc34)C2)C(C)(C)C)cc1 [Compound 38]
A: < 50%

Q: Same for Cc1ncsc1-c1ccc([C@H](C)NC(=O)[C@@H]2C[C@@H](O)CN2C(=O)[C@@H](NC(=O)CCCCCCCCC(=O)N2CC(c3cc4cc(-c5ccccc5O)nnc4[nH]3)C2)C(C)(C)C)cc1 [Compound 1]
A: < 50%

Q: Same for Cc1ncsc1-c1ccc([C@H](C)NC(=O)[C@@H]2C[C@@H](O)CN2C(=O)[C@@H](c2cc(OCCN3CC(CCc4[nH]c5nnc(-c6ccccc6O)cc5c4C)C3)no2)C(C)C)cc1 (single isomer, unassigned) [Compound 198]
A: > 75%

Q: Same for Cc1ncsc1-c1ccc(CNC(=O)[C@@H]2C[C@@H](O)CN2C(=O)[C@@H](NC(=O)CNC(=O)[C@H]2CCc3[nH]c4nnc(-c5ccccc5O)cc4c3C2)C(C)(C)C)cc1 (single isomer, unassigned) [Compound 191]
A: < 50%
